- PROTOCOL: in vitro
- TEST_SETTINGS: human, hela cells, % viability
Known viability at 28.5 h, 10 µM of a selection of compounds
OUTCOME_MEASURE: viability at 28.5 h, 10 µM (%)

In [3]: df
Out[3]:
                                    compound  experimental_value
 0  CC(=O)Nc1ccc(S(=O)(=O)/N=C(/Nc2nc(C)cc(C)n2)Nc2ccccc2C)cc1                95.9
 1  Nc1ncc(-c2cccc3ccccc23)nc1N1CCC[C@@H]1CO                94.1
 2           COC(=O)[C@H]1CCc2ccccc2N1C(C)=O                90.2
 3  O=C(CCNS(=O)(=O)c1ccccc1)N1CCC(Cc2ccccc2)CC1                84.9
 4  CCc1ccc(NC(=O)N2CCCCC2CCn2ccnc2)cc1 (centres unmarked)                 110
 5  CC(=O)c1cccc(NC(=O)c2cccn(Cc3ccc(C)cc3)c2=O)c1                 114
 6  COC(=O)c1ccc(N/C(C)=C/C(=O)c2ccc(C)o2)cc1                 115
 7  CN1CCN(C(=O)c2ccc(-c3cccc(C(F)(F)F)c3)nc2N2CCOCC2)CC1                  94
 8  Cc1nc2ncccn2c1-c1csc(Nc2ccc(C(=O)O)cc2)n1                 125
 9       O=C(c1ccco1)N1CCC(n2cnc3cccnc32)CC1                91.6
10  CC1CCN(S(=O)(=O)c2ccc(C(=O)NC(C(=O)O)C(C)O)cc2)CC1 (centres unmarked)                99.1
11  O=S(=O)(NCCc1cccs1)c1cc2c(N3CCNCC3)nccc2s1 [CBK041299C]                 104
12     CCNC(=O)Nc1nn(Cc2ccc(OC)cc2)c2ccccc12                94.6
13                Brc1cnc(-n2cnc3ccccc32)nc1                84.2
14  COc1ccc(S(=O)(=O)NCc2ccc3c(c2)OCO3)cc1C(=O)O                97.6
15  CCn1c(CC2CCN(C(=O)CCCn3cnnn3)CC2)nn(C)c1=O                 102
16      Nc1cc(Cl)cc2[nH]c(=O)c3cc(Cl)ccc3c12                73.3
17                 O=C(CN1CCOCC1)N1CCC(F)CC1                83.5
18  CC1CC1C(=O)NCCN1CCC(O)(c2cccc(F)c2)CC1 (centres unmarked)                84.4
19    Cc1cc(-c2nnc3n2N=C(c2ccccc2)CS3)n[nH]1                98.3
